The following compounds are shown together with reported MIC values.
- Tested on: clinical P. aeruginosa isolates
- assay-details: microbe, parasite or virus in culture
- stated-conditions: Pseudomonas aeruginosa, 18 h, read-out: Antibiotic sensibility (MIC) of clinical P. aeruginosa isolate AUMC-Pa-2, strain AUMC-Pa-2; antibiotic alone
Supply the numeric figure in µM, leaving out any unit text.

[H]/N=C(/N)N[C@H]1[C@H](O)[C@@H](O)[C@H](O[C@@H]2O[C@@H](C)[C@](O)(C=O)[C@H]2O[C@@H]2O[C@@H](CO)[C@H](O)[C@@H](O)[C@@H]2NC)[C@@H](N/C(N)=N\[H])[C@@H]1O [Streptomycin] : 8
CN(C)[C@@H]1C(O)=C(C(N)=O)C(=O)[C@@]2(O)C(O)=C3C(=O)c4c(O)cccc4[C@@](C)(O)[C@H]3C[C@@H]12 [Tetracycline] : 64

# input # get_value(readout='MIC', item= CN(C)[C@@H]1C(O)=C(C(N)=O)C(=O)[C@@]2(O)C(O)=C3C(=O)c4c(O)c(NC(=O)CN5CCCC5)cc(F)c4C[C@H]3C[C@@H]12 [Eravacycline] )
# output 8

---

- System: clinical P. aeruginosa isolates
- assay-details: microbe, parasite or virus in culture
- stated-conditions: Pseudomonas aeruginosa, 18 h, read-out: Antibiotic sensibility (MIC) of clinical P. aeruginosa isolate NR-31041, strain NR-31041; antibiotic alone
The following compounds are shown together with reported MIC values.
Supply the numeric figure in µM, leaving out any unit text.

Some compounds with recorded MIC:
CN(C)[C@@H]1C(O)=C(C(N)=O)C(=O)[C@@]2(O)C(O)=C3C(=O)c4c(O)c(NC(=O)CN5CCCC5)cc(F)c4C[C@H]3C[C@@H]12 : 8
O=C(N[C@H](CO)[C@H](O)c1ccc([N+](=O)[O-])cc1)C(Cl)Cl : 128

Let us move to another entry and its MIC.
# input # get_value(readout='MIC', item= CO[C@H]1/C=C/O[C@@]2(C)Oc3c(C)c(O)c4c(O)c(c(/C=N/N5CCN(C6CCCC6)CC5)c(O)c4c3C2=O)NC(=O)/C(C)=C\C=C\[C@H](C)[C@H](O)[C@@H](C)[C@@H](O)[C@@H](C)[C@H](OC(C)=O)[C@@H]1C )
# output 16

---

- Test system: P. aeruginosa AUMC-Pa-4
- assay-details: microbe, parasite or virus in culture
- stated-conditions: strain AUMC-Pa-4; with D-11 at MICbc 4; unit not given
Positions of bridges follow the written chain, without caps; N, C: chain ends. Non-standard residues stand in square brackets, D forms with d. Residues, ends and D or L forms follow the SMILES beside them. *: point of attachment. X1 = CC[C@H](C)CCCCC(=O)*; Dab = NCC[C@H](N)C(=O)O
The following molecules are shown together with reported MICac: MIC of the antibiotic in the combination values.

Some molecules with recorded MICac: MIC of the antibiotic in the combination:
CO[C@H]1/C=C/O[C@@]2(C)Oc3c(C)c(O)c4c(O)c(c(/C=N/N5CCN(C)CC5)c(O)c4c3C2=O)NC(=O)/C(C)=C\C=C\[C@H](C)[C@H](O)[C@@H](C)[C@@H](O)[C@@H](C)[C@H](OC(C)=O)[C@@H]1C : 0.25
CC[C@H]1OC(=O)[C@H](C)C(=O)[C@H](C)[C@@H](O[C@@H]2O[C@H](C)C[C@H](N(C)C)[C@H]2O)[C@](C)(OC)C[C@@H](C)C(=O)[C@H](C)[C@H]2N(CCCCn3cnc(-c4cccnc4)c3)C(=O)O[C@]12C : 32
CO[C@H]1/C=C/O[C@@]2(C)Oc3c(C)c(O)c4c(O)c(c5c(nc6cc(C)ccn65)c4c3C2=O)NC(=O)/C(C)=C\C=C\[C@H](C)[C@H](O)[C@@H](C)[C@@H](O)[C@@H](C)[C@H](OC(C)=O)[C@@H]1C : 2
COc1cc(Cc2cnc(N)nc2N)cc(OC)c1OC : 16
CC[C@H]1OC(=O)[C@H](C)[C@@H](O[C@H]2C[C@@](C)(OC)[C@@H](O)[C@H](C)O2)[C@H](C)[C@@H](O[C@@H]2O[C@H](C)C[C@H](N(C)C)[C@H]2O)[C@](C)(OC)C[C@@H](C)C(=O)[C@H](C)[C@@H](O)[C@]1(C)O : 32

# input # get_value(readout='MICac: MIC of the antibiotic in the combination', item= CC[C@H](C)CCCCC(=O)N[C@@H](CCN)C(=O)N[C@H](C(=O)N[C@@H](CCN)C(=O)N[C@H]1CCNC(=O)[C@H]([C@@H](C)O)NC(=O)[C@H](CCN)NC(=O)[C@H](CCN)NC(=O)[C@H](CC(C)C)NC(=O)[C@@H](Cc2ccccc2)NC(=O)[C@H](CCN)NC1=O)[C@@H](C)O [Polymyxin B] (X1-[Dab]T[Dab][Dab][Dab][dF]L[Dab][Dab]T; lactam 4-C (inferred); N-terminus assumed) )
# output 0.5

# input Moving on to CC[C@H](C)CCCCC(=O)N[C@@H](CCN)C(=O)N[C@H](C(=O)N[C@@H](CCN)C(=O)N[C@H]1CCNC(=O)[C@H]([C@@H](C)O)NC(=O)[C@H](CCN)NC(=O)[C@H](CCN)NC(=O)[C@H](CC(C)C)NC(=O)[C@@H](CC(C)C)NC(=O)[C@H](CCN)NC1=O)[C@@H](C)O [Colistin] (X1-[Dab]T[Dab][Dab][Dab][dL]L[Dab][Dab]T; lactam 4-C (inferred); N-terminus assumed)
# output 4

---

- System: clinical P. aeruginosa isolates
- assay-details: microbe, parasite or virus in culture
- stated-conditions: Pseudomonas aeruginosa, 18 h, read-out: Antibiotic sensibility (MIC) of clinical P. aeruginosa isolate NR-31041, strain NR-31041; antibiotic alone
measured-parameter: log10 of MIC (log10 of the value in µM)
Recall that a logarithmic scale is used here: each number is log10 of MIC in µM.

Some compounds with recorded log10 of MIC:
CC1(C)S[C@@H]2[C@H](NC(=O)C(C(=O)O)c3ccccc3)C(=O)N2[C@H]1C(=O)O (stereo partly drawn) [Carbenicillin] : 2.11
C[C@@H](O)[C@H]1C(=O)N2C(C(=O)O)=C(S[C@@H]3CN[C@H](C(=O)N(C)C)C3)[C@H](C)[C@H]12 [Meropenem] : 0.60
CN(C)[C@@H]1C(O)=C(C(N)=O)C(=O)[C@@]2(O)C(O)=C3C(=O)c4c(O)cccc4[C@@](C)(O)[C@H]3C[C@@H]12 [Tetracycline] : 1.81

# input # get_value(readout='log10 of MIC', item= CO[C@H]1/C=C/O[C@@]2(C)Oc3c(C)c(O)c4c(O)c(c(/C=N/N5CCN(C)CC5)c(O)c4c3C2=O)NC(=O)/C(C)=C\C=C\[C@H](C)[C@H](O)[C@@H](C)[C@@H](O)[C@@H](C)[C@H](OC(C)=O)[C@@H]1C [Rifampicin] )
# output 1.51

# input Moving on to NCC[C@H](O)C(=O)N[C@@H]1C[C@H](N)[C@@H](O[C@H]2O[C@H](CN)[C@@H](O)[C@H](O)[C@H]2O)[C@H](O)[C@H]1O[C@H]1O[C@H](CO)[C@@H](O)[C@H](N)[C@H]1O [Amikacin]
# output 0.30

# input Moving on to C[C@H]1c2cccc(O)c2C(=O)C2=C(O)[C@]3(O)C(=O)C(C(N)=O)=C(O)[C@@H](N(C)C)[C@@H]3[C@@H](O)[C@@H]21 [Doxycycline]
# output 1.20

# input Moving on to C[C@H]1COc2c(N3CCN(C)CC3)c(F)cc3c(=O)c(C(=O)O)cn1c23 [Levofloxacin]
# output 0.00

# input Moving on to CO/N=C(\C(=O)N[C@@H]1C(=O)N2C(C(=O)[O-])=C(C[N+]3(C)CCCC3)CS[C@H]12)c1csc(N)n1 [Cefepime]
# output 1.20

# input Moving on to C[C@H]1[C@H](NC(=O)/C(=N\OC(C)(C)C(=O)O)c2csc(N)n2)C(=O)N1S(=O)(=O)O [Aztreonam]
# output 1.81

# input Moving on to CC[C@H]1OC(=O)[C@H](C)[C@@H](O[C@H]2C[C@@](C)(OC)[C@@H](O)[C@H](C)O2)[C@H](C)[C@@H](O[C@@H]2O[C@H](C)C[C@H](N(C)C)[C@H]2O)[C@](C)(O)C[C@@H](C)CN(C)[C@H](C)[C@@H](O)[C@]1(C)O [Azithromycin]
# output 2.11

# input Moving on to CNC(C)C1CCC(N)C(OC2C(N)CC(N)C(OC3OCC(C)(O)C(NC)C3O)C2O)O1 (stereo not drawn) [Gentamicin]
# output 1.51

---

The following molecules are shown together with reported MICac: MIC of the antibiotic in the combination values.
- Tested on: P. aeruginosa ATCC27853
- assay-details: microbe, parasite or virus in culture
- Set-up: unit not given beside the values
- stated-conditions: strain ATCC27853; with D-11 at MICbc 4; unit not given
Form field (numeric): enter value without unit.

CO[C@H]1/C=C/O[C@@]2(C)Oc3c(C)c(O)c4c(c3C2=O)C2=NC3(CCN(CC(C)C)CC3)NC2=C(NC(=O)/C(C)=C\C=C\[C@H](C)[C@H](O)[C@@H](C)[C@@H](O)[C@@H](C)[C@H](OC(C)=O)[C@@H]1C)C4=O [Rifabutin] : 0.25
CC1(C)S[C@@H]2[C@H](NC(=O)C(C(=O)O)c3ccccc3)C(=O)N2[C@H]1C(=O)O (stereo partly shown) [Carbenicillin] : 32
C[C@H]1c2cccc(O)c2C(=O)C2=C(O)[C@]3(O)C(=O)C(C(N)=O)=C(O)[C@@H](N(C)C)[C@@H]3[C@@H](O)[C@@H]21 [Doxycycline] : 0.5

# input # get_value(readout='MICac: MIC of the antibiotic in the combination', item= CO[C@H]1/C=C/O[C@@]2(C)Oc3c(C)c(O)c4c(O)c(c(/C=N/N5CCN(C6CCCC6)CC5)c(O)c4c3C2=O)NC(=O)/C(C)=C\C=C\[C@H](C)[C@H](O)[C@@H](C)[C@@H](O)[C@@H](C)[C@H](OC(C)=O)[C@@H]1C [Rifapentine] )
# output 0.031
